- Tested Target: UniProtKB Q08499
- Experimental Details: PDE4 inhibitory activity assay (FAM-cAMP enzymatic reaction), PDE4D2
- Setup Conditions: read-out: PDE4 D2 inhibitory activity (IC50 value)
- Method: The compounds of the present disclosure were tested for their inhibitory activity (IC50 value) against PDE4A1A, PDE4B1, and PDE4D2. Positive compound: Trequinsin (Sigma, Cat No. T20S7). Instrument: Wallac Victor Muti-lable counter (Pekin Elmer) Steps of assay: […] Inhibition rates were calculated with Excel; and IC50 for each compound was calculated with Graphpad prism.
pIC50: −log10 of the molar value.
Hi, to clarify the labels: MET covers pIC50 from 8 upward, NOT MET covers anything below 8.

Given CCOc1nc([C@@H](CS(C)(=O)=O)n2c(=O)[nH]c3cc(-c4ccccc4C)cnc32)ccc1OC , state whether its pIC50 is at least 8.
MET

Item CCOc1nc([C@@H](CS(C)(=O)=O)n2c(=O)[nH]c3c(C)c(-c4cc(F)ccc4F)cnc32)ccc1OC with pIC50 of 8 or above?
MET

Does the compound CCOc1nc([C@@H](CS(C)(=O)=O)n2c(=O)[nH]c3c(C)c(-c4ccccc4C)cnc32)ccc1OC have recorded pIC50 that is 8 or more?
MET

Does pIC50 meet or surpass 8 for CCOc1nc([C@@H](CS(C)(=O)=O)n2c(=O)[nH]c3c(C)c(-c4ccccc4CC)cnc32)ccc1OC ?
MET

Could you please find out whether CCOc1nc([C@H](CS(C)(=O)=O)n2c(=O)[nH]c3c(C)c(-c4ccccc4C)cnc32)ccc1OC has pIC50 that meets 8 or exceeds it?
NOT MET

Exam item: decide whether the reported pIC50 for CCOc1nc([C@@H](CS(C)(=O)=O)n2c(=O)[nH]c3c(C)c(-c4ccccc4OC)cnc32)ccc1OC is at least 8.
MET

For this compound, is measured pIC50 8 or higher? CCOc1nc([C@@H](CS(C)(=O)=O)n2c(=O)[nH]c3c(C)c(-c4ccccc4F)cnc32)ccc1OC
MET

Item CCOc1nc([C@@H](CS(C)(=O)=O)n2c(=O)[nH]c3c(C)c(-c4ccc(F)cc4C)cnc32)ccc1OC with pIC50 of 8 or above?
MET

Kindly determine if pIC50 recorded for CCOc1nc([C@H](CS(C)(=O)=O)n2c(=O)[nH]c3c(C)c(-c4ccccc4OC)cnc32)ccc1OC is above or exactly 8.
NOT MET

Has CCOc1nc([C@@H](CS(C)(=O)=O)n2c(=O)[nH]c3c(C)c(-c4ccc(C)cc4C)cnc32)ccc1OC a recorded pIC50 greater than or equal to 8?
MET

Check this compound for pIC50 at or above 8: CCOc1nc([C@H](CS(C)(=O)=O)n2c(=O)[nH]c3c(C)c(-c4ccccc4F)cnc32)ccc1OC
NOT MET

====

- Tested Target: PDE4A1A (Homo sapiens)
- Construct: purchased BPS 60040
- Sequence (P27815 1-647 isoform P27815-4): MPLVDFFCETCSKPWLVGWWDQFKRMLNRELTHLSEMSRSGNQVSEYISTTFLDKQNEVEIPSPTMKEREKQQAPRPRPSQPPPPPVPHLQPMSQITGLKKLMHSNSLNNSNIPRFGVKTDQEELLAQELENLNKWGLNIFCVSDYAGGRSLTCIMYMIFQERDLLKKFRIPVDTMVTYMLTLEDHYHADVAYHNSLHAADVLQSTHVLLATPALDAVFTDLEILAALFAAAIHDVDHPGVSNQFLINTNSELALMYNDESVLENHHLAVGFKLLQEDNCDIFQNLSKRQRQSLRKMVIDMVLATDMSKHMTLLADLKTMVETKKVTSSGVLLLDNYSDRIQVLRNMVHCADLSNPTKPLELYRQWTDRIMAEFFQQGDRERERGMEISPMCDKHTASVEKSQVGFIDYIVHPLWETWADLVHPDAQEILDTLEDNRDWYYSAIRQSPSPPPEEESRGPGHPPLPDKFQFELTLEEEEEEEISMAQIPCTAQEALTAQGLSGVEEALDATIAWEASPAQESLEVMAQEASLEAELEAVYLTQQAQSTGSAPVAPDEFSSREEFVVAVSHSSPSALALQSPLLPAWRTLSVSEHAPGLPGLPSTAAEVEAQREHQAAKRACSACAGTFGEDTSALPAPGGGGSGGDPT
- Experimental Details: PDE4 inhibitory activity assay (FAM-cAMP enzymatic reaction), PDE4A1A
- Type: biochemical
- Setup Conditions: 20 nM
Experimental Readout: PDE4 A1 inhibitory effect at 20 nM

>>> experimental_result("CCOc1nc([C@H](CS(C)(=O)=O)n2c(=O)[nH]c3c(C)c(-c4ccc(F)cc4)cnc32)ccc1OC")
"−"
>>> experimental_result("CCOc1nc([C@@H](CS(C)(=O)=O)n2c(=O)n(C)c3cc(-c4ccc(C)cc4C)ccc32)ccc1OC")
"+"
>>> experimental_result("CCOc1nc([C@@H](CS(C)(=O)=O)n2c(=O)[nH]c3c(C)c(-c4c(F)cccc4OC)cnc32)ccc1OC")
"+"
>>> experimental_result("CCOc1nc([C@@H](CS(C)(=O)=O)n2c(=O)[nH]c3cc(Br)ccc32)ccc1OC")
"+"
>>> experimental_result("CCOc1nc([C@@H](CS(C)(=O)=O)n2c(=O)[nH]c3cc(-c4cc(F)ccc4F)ccc32)ccc1OC")
"+"
>>> experimental_result("CCOc1nc([C@H](CS(C)(=O)=O)n2c(=O)[nH]c3cc(-c4cc(F)ccc4F)cnc32)ccc1OC")
"−"

GET /values?readout=PDE4 A1 inhibitory effect at 20 nM&item= CCOc1nc([C@@H](CS(C)(=O)=O)n2c(=O)[nH]c3cc(-c4ccccc4C4CC4)cnc32)ccc1OC
+

====

- Tested Target: PDE4D2 (Homo sapiens, UniProt Q08499)
- Sequence (Q08499 303-809): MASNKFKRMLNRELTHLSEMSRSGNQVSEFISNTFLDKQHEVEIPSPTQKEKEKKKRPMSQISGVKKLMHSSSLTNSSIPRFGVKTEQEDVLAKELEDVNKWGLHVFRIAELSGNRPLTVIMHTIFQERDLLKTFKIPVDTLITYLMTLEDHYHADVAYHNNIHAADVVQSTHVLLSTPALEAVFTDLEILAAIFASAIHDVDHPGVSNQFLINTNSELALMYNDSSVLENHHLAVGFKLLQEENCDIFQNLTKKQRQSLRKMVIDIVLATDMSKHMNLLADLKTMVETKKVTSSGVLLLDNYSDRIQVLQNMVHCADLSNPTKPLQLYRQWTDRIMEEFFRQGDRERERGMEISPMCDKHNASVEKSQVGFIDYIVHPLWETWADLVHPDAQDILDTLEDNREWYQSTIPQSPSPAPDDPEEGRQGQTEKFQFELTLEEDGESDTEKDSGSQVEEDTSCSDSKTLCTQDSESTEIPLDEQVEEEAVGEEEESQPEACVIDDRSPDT
- Experimental Details: PDE4 inhibitory activity assay (FAM-cAMP enzymatic reaction), PDE4D2
- Type: biochemical
- Setup Conditions: 20 nM
Experimental Readout: PDE4 D2 inhibitory effect at 20 nM

Past entries and their recorded results:
>>> experimental_result("CCOc1nc([C@H](CS(C)(=O)=O)n2c(=O)[nH]c3c(C)c(-c4ccccn4)cnc32)ccc1OC")
"−"
>>> experimental_result("CCOc1nc([C@@H](CS(C)(=O)=O)n2c(=O)[nH]c3cc(C(=O)OC(C)C)ccc32)ccc1OC")
"+"
>>> experimental_result("CCOc1nc([C@@H](CS(C)(=O)=O)n2c(=O)[nH]c3cc(-c4cccc(C)c4C)cnc32)ccc1OC")
"+"
>>> experimental_result("CCOc1nc([C@@H](CS(C)(=O)=O)n2c(=O)n(C)c3cc(-c4ccccn4)cnc32)ccc1OC")
"+"
>>> experimental_result("CCOc1ccccc1-c1ccc2c(c1)[nH]c(=O)n2[C@@H](CS(C)(=O)=O)c1ccc(OC)c(OCC)n1")
"−"
>>> experimental_result("CCOc1nc([C@@H](CS(C)(=O)=O)n2c(=O)[nH]c3c(C)c(-c4ccccc4C)cnc32)ccc1OC(F)F")
"+"

# input for lookup
What value of PDE4 D2 inhibitory effect at 20 nM on PDE4D2 (Homo sapiens, UniProt Q08499) does CCOc1nc([C@@H](CS(C)(=O)=O)n2c(=O)n(C)c3cc(-c4ccccc4CC)ccc32)ccc1OC have?
+

====

- Tested Target: PDE4B1 (Homo sapiens, UniProt Q07343)
- Construct: purchased BPS 60041
- Sequence (Q07343 whole entry): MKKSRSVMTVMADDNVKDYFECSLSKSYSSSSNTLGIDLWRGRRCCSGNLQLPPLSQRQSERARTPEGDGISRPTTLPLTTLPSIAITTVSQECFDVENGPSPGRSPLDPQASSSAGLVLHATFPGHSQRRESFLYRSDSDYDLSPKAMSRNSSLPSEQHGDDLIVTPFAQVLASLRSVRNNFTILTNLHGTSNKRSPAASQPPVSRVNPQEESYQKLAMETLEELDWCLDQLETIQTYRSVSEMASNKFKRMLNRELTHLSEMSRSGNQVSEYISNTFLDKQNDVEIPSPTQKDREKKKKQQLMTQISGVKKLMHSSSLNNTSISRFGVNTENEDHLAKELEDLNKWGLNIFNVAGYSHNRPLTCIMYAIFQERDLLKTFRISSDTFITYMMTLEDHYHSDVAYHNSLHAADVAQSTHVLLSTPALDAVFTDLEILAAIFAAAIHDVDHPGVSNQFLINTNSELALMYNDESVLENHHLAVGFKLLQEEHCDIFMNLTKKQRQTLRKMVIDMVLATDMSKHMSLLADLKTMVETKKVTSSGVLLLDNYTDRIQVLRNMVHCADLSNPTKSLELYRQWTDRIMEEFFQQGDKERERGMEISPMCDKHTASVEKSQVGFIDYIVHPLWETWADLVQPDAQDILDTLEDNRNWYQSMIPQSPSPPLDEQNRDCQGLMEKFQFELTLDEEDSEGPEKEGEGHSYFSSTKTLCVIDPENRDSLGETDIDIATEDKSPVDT
- Experimental Details: PDE4 inhibitory activity assay (FAM-cAMP enzymatic reaction), PDE4B1
- Format: biochemical
- Setup Conditions: 20 nM
Experimental Readout: PDE4 B1 inhibitory effect at 20 nM

Example entries and their recorded answers appear below.
>>> experimental_result("CCOc1nc([C@@H](CS(C)(=O)=O)n2c(=O)n(C)c3cc(-c4cc(F)ccc4OC)cnc32)ccc1OC")
"+"
>>> experimental_result("CCOc1nc([C@H](CS(C)(=O)=O)n2c(=O)[nH]c3cc(-c4ccccc4C)ccc32)ccc1OC")
"+"
>>> experimental_result("CCOc1nc([C@H](CS(C)(=O)=O)n2c(=O)[nH]c3cc(-c4cc(F)ccc4F)cnc32)ccc1OC")
"−"
>>> experimental_result("CCOc1nc([C@@H](CS(C)(=O)=O)n2c(=O)[nH]c3cc(-c4cc(F)c(F)cc4F)ccc32)ccc1OC")
"+"
>>> experimental_result("CCOc1nc([C@@H](CS(C)(=O)=O)n2c(=O)[nH]c3c(C)c(-c4ccc(OC)cc4F)cnc32)ccc1OC")
"+"
>>> experimental_result("CCOc1nc([C@@H](CS(C)(=O)=O)n2c(=O)[nH]c3cc(-c4cccc(F)c4C)cnc32)ccc1OC")
"+"
>>> experimental_result("CCOc1nc([C@H](CS(C)(=O)=O)n2c(=O)[nH]c3cc(-c4ccccn4)ccc32)ccc1OC")
"−"
>>> experimental_result("CCOc1nc([C@@H](CS(C)(=O)=O)n2c(=O)[nH]c3cc(-c4cccc(C)c4C)cnc32)ccc1OC")
"+"

What does the record list as PDE4 B1 inhibitory effect at 20 nM for CCOc1nc([C@@H](CS(C)(=O)=O)n2c(=O)n(C)c3cc(-c4cc(F)ccc4F)cnc32)ccc1OC ?
+

Quick one: PDE4 B1 inhibitory effect at 20 nM of CCOc1nc([C@@H](CS(C)(=O)=O)n2c(=O)[nH]c3cc(-c4ccccc4CC)ccc32)ccc1OC ?
+
